B1: PhoQ; a variant is named by its letters at X, in order, P23837 (parent)
chain: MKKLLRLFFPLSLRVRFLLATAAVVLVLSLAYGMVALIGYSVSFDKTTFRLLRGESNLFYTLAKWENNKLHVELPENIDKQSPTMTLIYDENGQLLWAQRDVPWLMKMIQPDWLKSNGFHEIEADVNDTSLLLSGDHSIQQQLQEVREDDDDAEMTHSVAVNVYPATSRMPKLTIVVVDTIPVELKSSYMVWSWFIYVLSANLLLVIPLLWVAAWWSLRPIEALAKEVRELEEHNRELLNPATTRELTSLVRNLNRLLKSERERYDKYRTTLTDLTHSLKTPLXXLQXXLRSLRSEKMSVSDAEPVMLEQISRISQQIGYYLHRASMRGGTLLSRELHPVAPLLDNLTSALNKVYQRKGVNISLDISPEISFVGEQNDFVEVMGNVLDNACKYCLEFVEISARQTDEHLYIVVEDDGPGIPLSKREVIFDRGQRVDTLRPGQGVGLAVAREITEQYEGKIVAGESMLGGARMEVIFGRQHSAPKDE

- Variants of: B1
- ASSAY_OVERVIEW: enrichment ratio after two sorts for PhoP signalling (ratio (wild type AVST 3.29)); higher = more functional
- DETAILS: with PhoP (E. coli)
In all, about 140,000 sequences were measured (“enrichment ratio after two sorts for PhoP signalling”: median about 0, highest 2% from about 11 on). The entries come from a sample that favours the highest values as a whole.
ASSAY_METRIC: enrichment ratio
Just the number, please.

AMCI	14.1
AMCS	5.27

// next item, enrichment ratio requested
// recorded enrichment ratio for FCVL : 0.336

Reference source: a collection of fitness landscapes (doi:10.1126/science.1257360)
